# Tested on: K4 kissing-loop RNA reporter;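 also: bound reporter read as fluorescence of individual clusters on recovered sequencing chips by microscopy, with normalized cluster intensities fitted with a binding model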
# Assay: apparent KD of K4 kissing-loop reporter; higher = weaker reporter binding
# Condition Parameters: Eterna round: R107; input ligand: tryptophan 2.4 mM
Rule: apparent KD of K4 kissing-loop reporter of 300 nM or more gives TRUE; anything lower gives FALSE.

Some solved entries appear below for comparison.
{"columns": ["Residue Sequence", "Target Or System", "Group"],
 "data": [
  ["AUCUAGAUGCGAAGGAGCGCCUCAACGCGCUAUCUAUGGAGUGAUGUUCCAACGUAUGAGAGGCAGGUAGGUCGCGCAUCUAGAA [Arg B Ex t1]", "K4 kissing-loop RNA reporter", "FALSE"],
  ["AAGCAGUCACUCGAACCCAUCGAAGAUGGUCGAGGACCGGUACGGCCGCCACUCGGAGUGAUGUUCCGCAGACUGCAAAAUAAAA", "K4 kissing-loop RNA reporter", "TRUE"],
  ["AAGUCAUAUAGAAGGAGCGUGUUUUUUAAUUUGUUUUCAUGAUCGAGUGAUGUUCGAUAUACACAGGUAGGUCGCUGUAUGAUAA [hbob_SS_Arginine_B_2t143]", "K4 kissing-loop RNA reporter", "FALSE"],
  ["UUAGGAGUGGGAGGAUAUCCUAAUGUGGGUGAUGUUAGUGAUGUUGAAAGUGUAGUGAUGUUGUGCGGAGAAGGUCCAGUGUUGA [BDazzled - #11 - Exc. FMN B]", "K4 kissing-loop RNA reporter", "FALSE"],
  ["CGUAAGGAUUGACGACUGCAGAGCAAAAUAAAGGAUAUCGCAGCGUCGAGAAGGUUAUCGUGCGCCAGUGAUGUUGGCGGUAGUC [theeternabot_sameState_KL_FMN_A_22]", "K4 kissing-loop RNA reporter", "FALSE"],
  ["CGGAUGUAGUGAUGUUAUAUUAGAUGUAGACGAGGACCGGUACGGCCGCCACUCGAAACGGCUACUAGCGCGUUGCGAGGUGUGC [ExTryptoA.CJ]", "K4 kissing-loop RNA reporter", "TRUE"]
]}

Query string: Does the sequence UGCGCUGUGUCCUGAAAUGUCCUCCGGGAUACCAGAGUCUUUUUAUUCCCUUGGCAGCUUGAGUGAUGUUUGAUGCCGUUCUUGU [yvvymullin] have recorded apparent KD of K4 kissing-loop reporter that is 300 nM or more?
Result string: TRUE

The origin of these recorded values is the supplement of paper PMC9170038.
